Values were extracted from paper PMC8611094.

# TESTED_ON: DDX3X (UniProt O00571 1-662)
# Sequence (O00571 whole entry): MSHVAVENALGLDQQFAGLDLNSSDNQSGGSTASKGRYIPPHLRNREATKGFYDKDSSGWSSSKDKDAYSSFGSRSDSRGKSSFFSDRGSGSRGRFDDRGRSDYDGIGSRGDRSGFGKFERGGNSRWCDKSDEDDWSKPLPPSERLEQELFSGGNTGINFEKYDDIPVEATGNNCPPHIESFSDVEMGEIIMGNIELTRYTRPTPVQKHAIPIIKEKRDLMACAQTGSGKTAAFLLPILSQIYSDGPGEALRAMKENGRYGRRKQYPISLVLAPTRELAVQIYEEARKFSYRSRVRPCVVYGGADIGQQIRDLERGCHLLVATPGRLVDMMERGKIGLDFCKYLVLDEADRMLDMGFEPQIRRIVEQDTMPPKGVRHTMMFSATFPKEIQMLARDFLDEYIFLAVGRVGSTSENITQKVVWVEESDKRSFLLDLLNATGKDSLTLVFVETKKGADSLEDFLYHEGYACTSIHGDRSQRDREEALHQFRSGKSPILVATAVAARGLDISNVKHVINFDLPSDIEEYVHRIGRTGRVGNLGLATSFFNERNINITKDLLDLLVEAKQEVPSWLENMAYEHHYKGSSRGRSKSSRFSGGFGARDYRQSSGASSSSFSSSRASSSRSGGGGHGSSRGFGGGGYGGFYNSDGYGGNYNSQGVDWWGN
# PROTOCOL_DETAILS: ELISA; ELISA performed as in Zyner et al. (ref 43); buffer, salt, pH and temperature not given in the material
# CONDITION_DETAILS: protein: commercial; tags: FLAG; label: 5' biotin; intramolecular G4
ENDPOINT_NAME: pKd
Give bare numbers, as −log10 of the molar value.

Request: GET /values?readout=pKd&item= UGUGGGAGGGGCGGGUCUGGGUGC (structured_RNA) [NRAS G4]
Result: 7.74
